test system: RXF 393 renal; assay: NCI-60 one-dose screen, 48 h; details: 10 µM unless noted
This is part of a sample that, as a whole, favours compounds with a hit. Of some 83,000 tested, about 20% had one in any assay. Calls of active or inactive are those of the source. The calls were made as follows: active = growth percent below 10; inactive = the rest.
Pick one: YES = active, NO = inactive

- COMPOUND: "CC(=Nc1ccccc1)C1=C(O)C(Cc2ccc(F)cc2)NC1=O (stereo not given)"
  CLASS_ASSIGNMENT: "NO"

Input line: Hi, do you know how COC(=O)/C(CCC=C(C)C)=C1\[C@@H](OC(C)=O)C[C@@]2(C)[C@H]1C[C@@H](O)[C@H]1[C@@]3(C)CC[C@H](NCCO)[C@@H](C)[C@@H]3CC[C@@]12C came out in this test?
Output line: NO

Input line: Hi, do you know how COc1ccc(-c2cn3c(C(=O)Nc4ccccc4Cl)c(-c4ccccc4)c4c3n2CCCC4)cc1 came out in this test?
Output line: NO

Input line: Hi, do you know how Cc1c(-c2noc(-c3ccc([N+](=O)[O-])cc3)n2)no[n+]1[O-] came out in this test?
Output line: NO

Input line: Hi, do you know how CC(=O)c1ccc(Cc2ccc(C(C)=O)s2)s1 came out in this test?
Output line: NO

Input line: Hi, do you know how Fc1ccc(Oc2ccc(Nc3ncnc4onc(-c5ccccc5)c34)cc2)cc1 came out in this test?
Output line: NO

Input line: Hi, do you know how Cc1ccc(NC2=CC(=O)C(=O)c3ccccc32)c(C)c1 came out in this test?
Output line: NO

Input line: Hi, do you know how Cc1ccc(C2CC(c3ccc(Nc4nc(NCCO)nc(Nc5ccc(Cl)cc5)n4)cc3)=NN2c2cc(Cl)cc(Cl)c2)cc1 (stereo not given) came out in this test?
Output line: NO

Input line: Hi, do you know how COc1ccc(C(=O)C2CC2c2ccc(Cl)cc2)cc1 (stereo not given) came out in this test?
Output line: NO

Input line: Hi, do you know how CC(=O)Nc1nc2c(s1)CCc1c-2cn(S(=O)(=O)c2ccccc2)c1-c1ccccc1 came out in this test?
Output line: NO
